Molecular target: Excitatory amino acid transporter 2 (Homo sapiens)
Test: Displacement of [3H]D-Asp from human EAAT2 receptor expressed in HEK293 cells
pIC50: −log10 of the molar value.
quantity.kind: pIC50

**Query** Which measured pIC50 value corresponds to N#CC1=C(N)OC2=C(C(=O)CC(c3ccccc3)C2)C1Cc1ccccc1 (centres undefined) ?
**Result** < 4.00

**Query** Which measured pIC50 value corresponds to N#CC1=C(N)OC2=C(C(=O)CC(c3ccccc3)C2)C1c1ccc2c(c1)OCO2 (centres undefined) ?
**Result** < 3.50

**Query** Which measured pIC50 value corresponds to COc1ccc(C2C(C#N)=C(N)OC3=C2C(=O)CC(c2cccc4ccccc24)C3)cc1 (centres undefined) ?
**Result** < 3.50

**Query** Which measured pIC50 value corresponds to N#CC1=C(N)OC2=C(C(=O)CC(c3ccccc3)C2)C1c1ccc2ccccc2c1 (centres undefined) ?
**Result** < 4.00
